Data provenance: the supplement of paper PMC11061612

Tested on: TE-15 (Esophageal Squamous Cell Carcinoma)
Experiment: combination Emax (second highest fraction inhibited in the dose matrix, 72 h); higher = more inhibition; extreme values may be limits of the assay
RESULT_TYPE: combination Emax

Here is how some compounds turned out for combination Emax.
[[record]]
compound = "CC1(C)CCC(CN2CCN(c3ccc(C(=O)NS(=O)(=O)c4ccc(NCC5CCOCC5)c([N+](=O)[O-])c4)c(Oc4cnc5[nH]ccc5c4)c3)CC2)=C(c2ccc(Cl)cc2)C1 [Venetoclax] + CCN(CCO)CCCOc1ccc2c(Nc3cc(CC(=O)Nc4cccc(F)c4)[nH]n3)ncnc2c1 [AZD2811] (first compound max 1 µM, 7x7, partner max 1 µM)"
experimental_value = 0.441

[[record]]
compound = "CC1(C)CCC(CN2CCN(c3ccc(C(=O)NS(=O)(=O)c4ccc(NCC5CCOCC5)c([N+](=O)[O-])c4)c(Oc4cnc5[nH]ccc5c4)c3)CC2)=C(c2ccc(Cl)cc2)C1 [Venetoclax] + Cc1cc2ncnn2cc1Nc1ncc2c(n1)n(C1CCOCC1)c(=O)n2C [AZD7648] (first compound max 1 µM, 7x7, partner max 10 µM)"
experimental_value = 0.295

[[record]]
compound = "COc1nnc2ccc(N3CCC(c4ccc(OCCN5CCN(C)C(=O)[C@H]5C)cc4)CC3)nn12 [AZD5153] + Cn1cnc2c(F)c(Nc3ccc(Br)cc3Cl)c(C(=O)NOCCO)cc21 [Selumetinib] (first compound max 1 µM, 7x7, partner max 10 µM)"
experimental_value = 0.743


Task item: // query combination Emax value for entry CS(=O)(=O)CCNCc1ccc(-c2ccc3ncnc(Nc4ccc(OCc5cccc(F)c5)c(Cl)c4)c3c2)o1 [Lapatinib] + NC1(c2ccc(-c3nc4ccn5c(=O)[nH]nc5c4cc3-c3ccccc3)cc2)CCC1 [MK-2206] (first compound max 10 µM, 7x7, partner max 10 µM)
Reply: 0.831

Task item: Similarly, C[C@@H]1COCCN1c1cc(C2([S@](C)(=N)=O)CC2)nc(-c2ccnc3[nH]ccc23)n1 [AZD6738] + Nc1ccn([C@@H]2O[C@H](CO)[C@@H](O)C2(F)F)c(=O)n1 [Gemcitabine] (first compound max 10 µM, 7x7, partner max 0.3 µM) ?
Reply: 0.939

Task item: // query: COc1nnc2ccc(N3CCC(c4ccc(OCCN5CCN(C)C(=O)[C@H]5C)cc4)CC3)nn12 [AZD5153] + Cc1c2c(nn1C)CSCc1cc(n(C)n1)CSc1cc(c3ccccc3c1)OCCCc1c(C(=O)O)n(C)c3c-2c(Cl)ccc13 [AZD5991] (first compound max 1 µM, 7x7, partner max 1 µM)
Reply: 0.627

Task item: Do the same for C[C@@H](c1ccc2nccn2c1)n1nnc2ncc(-c3cnn(C)c3)nc21 [Savolitinib] + Cc1c2c(nn1C)CSCc1cc(n(C)n1)CSc1cc(c3ccccc3c1)OCCCc1c(C(=O)O)n(C)c3c-2c(Cl)ccc13 [AZD5991] (first compound max 1 µM, 7x7, partner max 1 µM) please
Reply: 0.282
